Please consider the recorded MIC for K. pneumoniae H154020667 (KP6) in what follows.

{"item smiles": "Cc1cc(-c2[nH]c(N)nc2-c2ccc3c(c2)NCCC3)ccn1", "MIC": "1 to 10 µM"}
{"item smiles": "Cc1cc(-c2[nH]c(N)nc2-c2ccc3c(c2)N(CC2CC2)CCO3)ccn1", "MIC": "≤ 1 µM"}
{"item smiles": "Cc1cc(-c2[nH]c(N)nc2-c2ccc3c(c2)OCCO3)ccn1", "MIC": "≤ 1 µM"}
{"item smiles": "Cc1cc(-c2[nH]c(N)nc2-c2cc(F)c3c(c2)OCCO3)ccn1", "MIC": "≤ 1 µM"}
{"item smiles": "CCN1CCOc2ccc(-c3nc(N)[nH]c3-c3ccnc(C)c3)cc21", "MIC": "≤ 1 µM"}
{"item smiles": "Cc1cc(-c2nc(N)[nH]c2-c2ccc(OCc3ccc(F)cc3)c(F)c2)ccn1", "MIC": "≤ 1 µM"}

###

Tested on: Klebsiella pneumoniae ATCC 51504 (KP4)
measurement kind: MIC

{"item smiles": "Cc1cc(-c2[nH]c(N)nc2-c2ccc3c(c2)NCCC3)ccn1", "measurement kind": "MIC", "result value": "1 to 10 µM"}
{"item smiles": "Cc1cc(-c2[nH]c(N)nc2-c2ccc3c(c2)N(CC2CC2)CCO3)ccn1", "measurement kind": "MIC", "result value": "1 to 10 µM"}
{"item smiles": "Cc1cc(-c2[nH]c(N)nc2-c2cc3c(cc2F)OCCN3)ccn1", "measurement kind": "MIC", "result value": "≤ 1 µM"}
{"item smiles": "Nc1nc(-c2ccc3c(c2)NCCO3)c(-c2ccnc(Cl)c2)[nH]1", "measurement kind": "MIC", "result value": "1 to 10 µM"}

###

Please consider the recorded MIC for K. pneumoniae H154680676 (KP5) in what follows.

{"item smiles": "Cc1cc(-c2[nH]c(N)nc2-c2ccc3c(c2)CCO3)ccn1", "MIC": "1 to 10 µM"}
{"item smiles": "COc1ncc(-c2nc(N)[nH]c2-c2ccnc(C)c2)cc1F", "MIC": "1 to 10 µM"}
{"item smiles": "Cc1cc(-c2[nH]c(C)nc2-c2ccc3c(c2)OCCO3)ccn1", "MIC": "1 to 10 µM"}
{"item smiles": "CCN1CCOc2ccc(-c3nc(N)[nH]c3-c3ccnc(C)c3)cc21", "MIC": "≤ 1 µM"}
{"item smiles": "Cc1cc(-c2[nH]c(N)nc2-c2cc(F)c3c(c2)NCCO3)ccn1", "MIC": "≤ 1 µM"}
{"item smiles": "Nc1nc(-c2ccc3c(c2)NCCO3)c(-c2ccnc(Cl)c2)[nH]1", "MIC": "1 to 10 µM"}
{"item smiles": "Cc1cc(-c2[nH]c(N)nc2-c2ccc(OCc3ccc(F)cc3)cc2)ccn1", "MIC": "≤ 1 µM"}
{"item smiles": "Cc1cc(-c2[nH]c(N)nc2-c2ccc3c(c2)NCCO3)ccn1", "MIC": "≤ 1 µM"}
{"item smiles": "Cc1cc(-c2[nH]c(N)nc2-c2ccc3c(c2)N(C(=O)CN)CCO3)ccn1", "MIC": "1 to 10 µM"}
{"item smiles": "Cc1cc(-c2[nH]c(N)nc2-c2ccc3c(c2)N(C2CC2)CCO3)ccn1", "MIC": "≤ 1 µM"}
{"item smiles": "Cc1cc(-c2[nH]c(N)nc2-c2ccc(OCc3ccc(F)cc3)nc2)ccn1", "MIC": "≤ 1 µM"}
{"item smiles": "Cc1cc(-c2[nH]c(N)nc2-c2ccc3c(c2)N(S(C)(=O)=O)CCO3)ccn1", "MIC": "1 to 10 µM"}
{"item smiles": "Cc1cc(-c2[nH]c(N)nc2-c2ccc3c(c2)NCCC3)ccn1", "MIC": "1 to 10 µM"}
{"item smiles": "Cc1cc(-c2nc(N)[nH]c2-c2ccc(OCc3ccc(F)cc3)c(F)c2)ccn1", "MIC": "≤ 1 µM"}
{"item smiles": "Cc1cc(-c2[nH]c(N)nc2-c2cc3c(cc2F)OCCN3)ccn1", "MIC": "≤ 1 µM"}
{"item smiles": "COc1ccc(-c2nc(N)[nH]c2-c2ccnc(C)c2)cc1Cl", "MIC": "1 to 10 µM"}
